Tested on: MCF7
Experiment: NCI tumour cell line growth inhibition, 48 h
The source made the active and inactive calls. No stated cut-off is given here; in the data, active = GI50 up to about 1.1 µM and inactive = higher.
Labels: active, inactive

molecule	assignedClass
COC(=O)[C@@](C)(COC(=O)C(C)(C)C)NC(=O)OC(C)(C)C	inactive
Cc1nc2ccc(F)cc2c(Cl)c1CCCl	inactive
NC(=O)C(NC=O)c1ccccc1 (stereo not given)	inactive
O=C(NC(=S)Nc1ccc(Br)cc1)c1ccc2c(c1)Sc1ccccc1O2	inactive
C/C=C(/C)C(=O)O[C@H]1[C@H]2[C@@H]([C@@H](OC(C)=O)[C@H](C)C(=O)[C@@]34C[C@@H](C)C(=O)[C@]3(/C=C(\C)[C@H]1OC(C)=O)O4)C2(C)C	inactive
COc1cc2c(/C=C3/C(=O)N(C)c4ccc(O)cc43)c(Cl)[nH]c2cc1C	active
O=S(=O)(O)c1cc(/N=N/c2cc(S(=O)(=O)O)c3ccccc3c2O)ccc1/C=C/c1ccc(/N=N/c2cc(S(=O)(=O)O)c3ccccc3c2O)cc1S(=O)(=O)O	inactive
CCCCCCCC/C=C\CCCCCCC(F)C(=O)O (stereo not given)	inactive
CSCCC(NCc1c(O)ccc2ccc(=O)oc12)C(=O)O (stereo not given)	inactive
O=C(O)c1cc2c(s1)C(=O)c1sccc1C2=O	inactive
Cc1cc2c(cc1C)NC1=C(O)C(c3c[nH]c4ccc(COc5ccccc5)cc34)OC1=N2 (stereo not given)	inactive
C[N+](C)(C)CCOC(=O)/C=C/c1c[nH]cn1	inactive
O=C(n1c(=O)n(-c2ccc(Cl)cc2)c(=O)n1C(=O)C(Cl)(Cl)Cl)C(Cl)(Cl)Cl	inactive
c1ccc(Cc2cccc3cc(-c4ccc(-c5ccccc5)cc4)[nH]c23)cc1	inactive
COC(=O)c1cccc(COc2ccc([N+](=O)[O-])cc2Cl)c1	inactive
O=C(Nc1nc(C23CC4CC(CC(C4)C2)C3)cs1)c1c(O)c2ccccc2[nH]c1=O	inactive
CC(C)NCCC(O)c1cc2ccccc2o1 (stereo not given)	inactive
COc1ccc(N2C(=O)/C(=C\c3cccc(Oc4ccccc4)c3)S(=O)(=O)C2c2ccccc2)cc1 (stereo not given)	inactive
Cc1nnc2n1-c1ccccc1-c1[nH]c3ccccc3c1C2	inactive
O=C1CCCC/C1=C1/SC(=N/c2ccccc2)/C(=N\c2ccccc2)N1c1ccccc1	inactive

* * *

System: HCC 2998
Assay: NCI tumour cell line growth inhibition, 48 h
Active and inactive are the calls of the source. Cut-off read from the data, not from the text of the source: active = GI50 up to about 1.1 µM and inactive = higher.

compound	GI50
Clc1cc(Cl)c2cc3cccc[n+]3cc2c1Cl	17.1 µM (inactive)
COC(=O)C(CC(=O)Nc1ccc(Cl)c(Cl)c1)C(=O)C(=O)Nc1ccc(Cl)c(Cl)c1 (stereo unspecified)	> 100 µM (inactive)
CC1=NN(C(=O)CSc2nc3ccc(I)cc3c(=O)n2Cc2ccccc2)C(=O)C1	39.1 µM (inactive)
COc1c(O)cc2c3c(ccnc13)NC=C2	> 100 µM (inactive)
Cc1cccc2c(=O)c3c(O)cc(O)cc3n(C)c12	> 100 µM (inactive)
COc1ncnc2c1cnn2Cc1cn(COCC(O)CO)nn1 (stereo unspecified)	> 100 µM (inactive)

* * *

System: NCI-H460
Assay: NCI tumour cell line growth inhibition, 48 h
Activity calls are given as the source filed them. Cut-off read from the data, not from the text of the source: active = GI50 up to about 1.1 µM and inactive = higher.
Attribute: GI50

compound	targetOrSystem	GI50
NC(=O)C(NC=O)c1ccccc1 (configuration not stated)	NCI-H460	> 100 µM (inactive)
CN1CCN(c2ccc3nc(C4=C(O)C(=O)[C@@H]5C(=C4O)N=C(CO)N5C)[nH]c3n2)CC1	NCI-H460	> 100 µM (inactive)
CN(C)c1ccc(/C=C/C(=O)CC(=O)/C=C/c2ccc(N(C)C)cc2)cc1	NCI-H460	> 100 µM (inactive)
Cc1c(C(=O)c2ccc(N)c3ccccc23)c2ccccc2n1CCN1CCOCC1	NCI-H460	3.4 µM (inactive)
C1CC[N+]23CCCC[N+]2(C1)CCCC3 (configuration not stated)	NCI-H460	> 100 µM (inactive)
C/C(CC(=O)Nc1ccc(C)c(C)c1)=N\NC(N)=S	NCI-H460	> 100 µM (inactive)
CC(Br)C(=O)NN1C2=C(Nc3ccccc31)c1cccc3cccc2c13 (configuration not stated)	NCI-H460	49.4 µM (inactive)

Just for reference, ChEMBL document CHEMBL1201862 is where these values come from.
